- Target Entity: HSP90α protein (N-terminal) (Homo sapiens, UniProt P07900)
- Construct: purchased BPS Bioscience #50298
- Measurement Description: HSP90α-binding fluorescent polarization (FP) assay, competition with BODIPY-labeled RNK04010
- Test Settings: probe RNK04010 (BODIPY-labeled) 5 nM, 25° C. 300 min
Property Measured: IC50

Enquiry: Requested field: IC50. Item: COc1cc(O)c(C(C)C)cc1-c1nnc(O)n1-c1ccc(CN2CCN(CC3CCN(C(=O)C[C@@H]4N=C(c5ccc(Cl)cc5)c5c(sc(C)c5C)-n5c(C)nnc54)CC3)CC2)cc1 [Compound 108]
Return: > 1000 nM
